# Tested on: NCI/ADR-RES
# test_protocol: NCI tumour cell line growth inhibition, 48 h
Active and inactive are the calls of the source. No stated cut-off is given here; in the data, active = GI50 up to about 1.1 µM and inactive = higher.
Listing: GI50 of selected molecules

Take a look at these entries with their results.
molecule: NC1CC(=O)c2csc(Br)c21 (configuration not stated)
val: 20.1 µM (inactive)

molecule: Cc1nc2ccc(S(=O)(=O)O)cc2c(=O)n1-c1ccc(C(=O)NN2C(=O)C(Cl)C2c2ccccc2O)cc1 (configuration not stated)
val: > 100 µM (inactive)

molecule: O=C(O)CCCSc1ccccc1
val: > 100 µM (inactive)

molecule: C=C1c2[nH]c3ccccc3c2C2C(CC)C1CCN2C (configuration not stated)
val: 42.2 µM (inactive)

molecule: CC1(C)CCCCCCC2CC2CCCCCC(C)(C)C1=O (configuration not stated)
val: 99.3 µM (inactive)

molecule: O=C1OCC2=C1C(c1ccc(Cl)cc1)c1cc3c(cc1O2)OCO3 (configuration not stated)
val: 2.64 µM (inactive)

molecule: C/C(=C\COP(=O)(O)CP(=O)(O)O)CC/C=C(\C)CNc1ccccc1
val: > 100 µM (inactive)

molecule: NCCCCC(N)C(=O)N1CCN(c2nc(N3CCCC3)c3nc(Cl)c(NCc4ccccc4)nc3n2)CC1 (configuration not stated)
val: 44.6 µM (inactive)

molecule: CN(C)C(=S)NC(=S)Nc1ccc2ccccc2c1
val: 13.8 µM (inactive)

molecule: Cc1ccc(S(=O)(=O)Nn2c(O)c(C#N)c(-c3ccc(Cl)cc3)c(C#N)c2=O)cc1
val: > 100 µM (inactive)

# input Quick one: GI50 of CC(C)=CCNc1ncnc2c1c(C#N)cn2C1OC(CO)C(O)C1O (configuration not stated) ?
# output > 82 µM (inactive)

# input GET /values?readout=GI50&item= CCOC(=O)c1nnc2c(C(=O)OCC)c3ccccc3n2c1N
# output 3.61 µM (inactive)
